Taken from paper PMC8699718.

experimental_target: T1, purified UBE2G2 (UniProt P60604 1-165, ^15N-labeled for NMR)
T1 chain: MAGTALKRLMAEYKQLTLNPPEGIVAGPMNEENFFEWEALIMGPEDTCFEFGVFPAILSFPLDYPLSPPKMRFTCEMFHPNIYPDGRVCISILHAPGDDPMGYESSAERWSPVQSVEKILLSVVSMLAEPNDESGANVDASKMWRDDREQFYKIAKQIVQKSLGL
test_method_notes: MST
pKd: −log10 of the molar value. Ends that are not written are not given here.
# reported pKd; entries follow
quantity_measured: pKd

[
  {
    "binder": "SSWARQESLQERKQALYEYARRRFTER (also: FITC label, position not given here) [FITC-labeled G2BR^AUP1 peptide]",
    "quantity_measured": "pKd",
    "reported_value": 8.37
  },
  {
    "binder": "WSADERQRMLVQRKDELLQQARKRFLNK (also: FITC label, position not given here) [FITC-labeled G2BR^gp78 peptide]",
    "quantity_measured": "pKd",
    "reported_value": 8.00
  }
]
